System: H9c2
ASSAY DETAILS: protection of cardiomyocytes from stress damage, SAR follow-up, cell-based, panel, H9c2 and HL-1, H2O2, 2-deoxyglucose, ATP luminescence (AID 651642)
CONDITION SUMMARY: H9c2/HL-1 cardiomyocyte 2-deoxyglucose damage, mean of runs, with 2-deoxyglucose
The source made the active and inactive calls.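 Rule for the calls: active = average half-effect concentration of 10 µM or less in every one of the four cell panels; inactive = the rest.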
One label from this list, please: true for active, false for inactive

Input: What did this assay record as the result for CCOC(=O)c1ccc(NC(=O)c2cc(-c3cc(OC)c(OC)c(OC)c3)nc3ccccc23)cc1 ?
Output: false

Input: What did this assay record as the result for CCOC(=O)c1cccc(NC(=O)CNC(=O)c2cc(-c3cc(OC)c(OC)c(OC)c3)nc3ccc(Br)cc23)c1 ?
Output: true

Input: What did this assay record as the result for COc1ccccc1CN1C(=O)c2ccccc2N2C(=O)c3c(ccc(OC)c3OC)C12 (stereo not drawn) ?
Output: false

Input: What did this assay record as the result for COc1ccc2c(c1OC)C(=O)N1c3ccccc3C(=O)N(Cc3ccccn3)C21 (stereo not drawn) ?
Output: false

Input: What did this assay record as the result for COc1cc(-c2cc(C(=O)Nc3cccc(C(N)=O)c3)c3ccccc3n2)cc(OC)c1OC ?
Output: false

Input: What did this assay record as the result for COc1cc(-c2cc(C(=O)NCC(=O)Nc3ccc(C(C)=O)cc3)c3ccccc3n2)cc(OC)c1OC ?
Output: false

Input: What did this assay record as the result for COc1cc(-c2cc(C(=O)NCC(=O)O)c3ccccc3n2)cc(OC)c1OC ?
Output: false

Input: What did this assay record as the result for COc1ccc2c(c1OC)C(=O)N1c3ccccc3C(=O)N(Cc3ccccc3)C21 (stereo not drawn) ?
Output: false

Input: What did this assay record as the result for COc1cc(-c2cc(C(=O)Nc3cccc(C(C)=O)c3)c3ccccc3n2)cc(OC)c1OC ?
Output: false

Input: What did this assay record as the result for COc1ccc2c(c1OC)C(=O)N1c3ccccc3C(=O)N(Cc3ccc(F)cc3)C21 (stereo not drawn) ?
Output: false

Input: What did this assay record as the result for COC(=O)CNC(=O)c1cccc(NC(=O)c2cc(-c3cc(OC)c(OC)c(OC)c3)nc3ccccc23)c1 ?
Output: true

Input: What did this assay record as the result for COc1cc(-c2cc(C(=O)Nc3cccc(C(C)=O)c3)c3cc(F)ccc3n2)cc(OC)c1OC ?
Output: false

Input: What did this assay record as the result for COc1cc(-c2cc(C(=O)Nc3cccc(C(=O)Nc4ccccc4)c3)c3ccccc3n2)cc(OC)c1OC ?
Output: true

Input: What did this assay record as the result for CCOC(=O)c1cccc(NC(=O)c2cc(-c3cc(OC)c(OC)c(OC)c3)nc3cc(Cl)ccc23)c1 ?
Output: false

Input: What did this assay record as the result for COc1ccc2c(c1OC)C(=O)N1c3ccccc3C(=O)N(Cc3ccc(C)cc3)C21 (stereo not drawn) ?
Output: false

Input: What did this assay record as the result for COc1ccc2c(c1OC)C(=O)N1c3ccccc3C(=O)N(Cc3ccccc3C)C21 (stereo not drawn) ?
Output: false

Input: What did this assay record as the result for CCOC(=O)c1cccc(NC(=O)c2cc(-c3cc(OC)c(OC)c(OC)c3)nc3ccc(Br)cc23)c1 ?
Output: false

Input: What did this assay record as the result for COc1cccc(CNC(=O)CNC(=O)c2cc(-c3cc(OC)c(OC)c(OC)c3)nc3ccccc23)c1 ?
Output: false
